target: EGFR exon 20 ASV Ins V769_D770 (Ba/F3 cells) (Homo sapiens, UniProt P00533, INS769ASV)
Construct: expressed in transfected cells; host or cells: Ba/F3 (murine pro-B cells), retroviral transduction, puromycin selection, IL3-independent pool
Sequence (P00533 with tags, fused parts or gaps INS769ASV): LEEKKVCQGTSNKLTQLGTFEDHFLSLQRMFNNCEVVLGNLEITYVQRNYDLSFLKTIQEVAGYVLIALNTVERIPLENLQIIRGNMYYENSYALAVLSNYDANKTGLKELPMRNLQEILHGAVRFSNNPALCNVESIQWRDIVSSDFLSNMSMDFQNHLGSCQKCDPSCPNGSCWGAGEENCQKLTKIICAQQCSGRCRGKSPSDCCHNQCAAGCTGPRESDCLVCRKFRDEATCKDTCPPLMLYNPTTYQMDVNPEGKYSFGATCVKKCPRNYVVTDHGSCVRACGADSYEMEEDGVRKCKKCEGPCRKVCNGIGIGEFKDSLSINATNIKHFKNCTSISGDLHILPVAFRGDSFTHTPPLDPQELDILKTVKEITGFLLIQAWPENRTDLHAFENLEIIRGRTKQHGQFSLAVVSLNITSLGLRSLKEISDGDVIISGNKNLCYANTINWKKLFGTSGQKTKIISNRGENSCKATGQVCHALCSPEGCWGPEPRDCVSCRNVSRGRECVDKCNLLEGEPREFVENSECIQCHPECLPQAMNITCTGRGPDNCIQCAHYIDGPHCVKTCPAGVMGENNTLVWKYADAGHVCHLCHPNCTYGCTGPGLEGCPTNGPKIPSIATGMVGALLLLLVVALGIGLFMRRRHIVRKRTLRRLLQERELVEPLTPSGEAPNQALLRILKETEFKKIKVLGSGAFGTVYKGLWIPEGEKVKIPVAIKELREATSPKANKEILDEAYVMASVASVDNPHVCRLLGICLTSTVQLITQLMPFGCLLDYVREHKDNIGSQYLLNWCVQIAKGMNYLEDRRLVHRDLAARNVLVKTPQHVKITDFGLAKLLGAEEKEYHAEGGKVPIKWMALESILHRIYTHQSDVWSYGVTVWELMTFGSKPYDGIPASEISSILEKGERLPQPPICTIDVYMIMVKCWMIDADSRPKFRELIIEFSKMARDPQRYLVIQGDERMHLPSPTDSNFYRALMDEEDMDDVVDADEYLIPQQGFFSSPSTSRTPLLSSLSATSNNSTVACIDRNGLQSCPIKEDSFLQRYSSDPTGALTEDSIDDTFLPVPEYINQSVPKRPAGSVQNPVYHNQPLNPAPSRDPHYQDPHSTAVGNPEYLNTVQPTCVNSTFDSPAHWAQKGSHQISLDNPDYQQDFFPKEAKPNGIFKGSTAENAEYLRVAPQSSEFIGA
assay explanation: Inhibitor activity on EGFR phosphorylation (pEGFR AlphaLISA, 2 h), Ba/F3 EGFR exon 20 ASV Ins
Type: cell-based
condition summary: EGFR phosphorylation, AlphaLISA, 2 hours; read-out: ASV IC50 (pEGFR)
pIC50: −log10 of the molar value.

| molecule | pIC50 |
| --- | --- |
| COCC[C@@H]1CNC(=O)c2c1[nH]c(-c1ccncc1F)c2Nc1cccc(F)c1OC [421b] | > 7.00 |
| COc1ncc2nccc(-c3[nH]c4c(c3Nc3cccc(Cl)c3OC)C(=O)NCC4)c2n1 | > 7.00 |
| COc1ccc2nccc(-c3[nH]c4c(c3Nc3cccc(F)c3OC)C(=O)NCC43CCNCC3)c2n1 | > 7.00 |
| Nc1nccc(-c2[nH]c3c(c2Nc2ccc(F)c(F)c2)C(=O)NCC3)n1 | < 6.00 |
| COCC[C@H]1CNC(=O)c2c1[nH]c(-c1ccncc1F)c2Nc1cccc(Cl)c1OC | > 7.00 |
| COc1c(Cl)cccc1Nc1c(-c2ccnc(NC[C@@H]3CCCO3)n2)[nH]c2c1C(=O)NCC2 | 6.00 to 7.00 |
| CNc1nccc(-c2[nH]c3c(c2Nc2cccc(F)c2C)C(=O)NCC3)n1 | > 7.00 |
| COc1c(Cl)cccc1Nc1c(-c2ccnc(NCC(F)(F)F)n2)[nH]c2c1C(=O)NCC2 | 6.00 to 7.00 |
| COc1c(F)cccc1Nc1c(-c2ccnc(N)c2)[nH]c2c1C(=O)NCC2 | 6.00 to 7.00 |
| COc1c(Cl)cccc1Nc1c(-c2ccnc3c(N)noc23)[nH]c2c1C(=O)NCC2 | > 7.00 |
| Cc1c(F)cccc1Nc1c(-c2ccnc(N)c2F)[nH]c2c1C(=O)NCC2 | 6.00 to 7.00 |
| Nc1nccc(-c2[nH]c3c(c2Nc2cccc4c2OCO4)C(=O)NCC3)n1 | 6.00 to 7.00 |
| COc1c(Cl)cccc1Nc1c(-c2ccnc(N)c2F)[nH]c2c1C(=O)NCC2 | > 7.00 |
| COc1cccc(Nc2c(-c3ccnc(N)n3)[nH]c3c2C(=O)NCC3)c1C | < 6.00 |
| Cc1cc(F)ccc1Nc1c(-c2ccnc(N)n2)[nH]c2c1C(=O)NCC2 | < 6.00 |
| COc1c(F)cccc1Nc1c(-c2ccnc3ccc(NC4(C)CC4)nc23)[nH]c2c1C(=O)NCC2 | > 7.00 |
| COc1c(Nc2c(-c3ccnc(N)n3)[nH]c3c2C(=O)NCC3)cccc1C(F)(F)F | 6.00 to 7.00 |
| COc1c(F)cccc1Nc1c(-c2ccncn2)[nH]c2c1C(=O)NCC2 | 6.00 to 7.00 |
| Nc1nccc(-c2[nH]c3c(c2Nc2cccc4ccoc24)C(=O)NCC3)n1 | 6.00 to 7.00 |
| COc1c(Cl)cccc1Nc1c(-c2ccnc(NCc3ccccc3)n2)[nH]c2c1C(=O)NCC2 | 6.00 to 7.00 |
| COc1c(Cl)cccc1Nc1c(-c2ccnc(NCC(C)(C)O)n2)[nH]c2c1C(=O)NCC2 | < 6.00 |
| Nc1nccc(-c2[nH]c3c(c2Nc2ccccc2Cl)C(=O)NCC3)n1 | > 7.00 |
| COc1cc(Cl)cc(Nc2c(-c3ccnc(N)n3)[nH]c3c2C(=O)NCC3)c1 | < 6.00 |
| COc1c(Nc2c(-c3ccnc(N)n3)[nH]c3c2C(=O)NCC3)cccc1C(C)=O | < 6.00 |
| COCCNc1ccc2nccc(-c3[nH]c4c(c3Nc3cccc(Cl)c3OC)C(=O)NCC4)c2n1 | > 7.00 |
| Nc1nccc(-c2[nH]c3c(c2Nc2cccc4scnc24)C(=O)NCC3)n1 | 6.00 to 7.00 |

###

target: EGFR exon 20 ASV Ins V769_D770 (Ba/F3 cells) (Homo sapiens, UniProt P00533, INS769ASV)
Construct: expressed in transfected cells; host or cells: Ba/F3 (murine pro-B cells), retroviral transduction, puromycin selection, IL3-independent pool
assay explanation: Inhibitor activity on EGFR-dependent cell growth (CellTiter-Glo, 72 h), Ba/F3 EGFR exon 20 ASV Ins
Assay type: cell-based
condition summary: read-out: BaF3 ASV IC50
The entries below come with measured IC50 values attached.
property measured: IC50

| compound | value |
| --- | --- |
| COc1c(F)cccc1Nc1c(-c2ccnc3cnc(OC4CC4)nc23)[nH]c2c1C(=O)NCC2 [compound 413] | < 100 nM |
| C#Cc1cccc(Nc2c(-c3ccnc(N)n3)[nH]c3c2C(=O)NCC3)c1OC [Compound 703] | > 1000 nM |
| COc1cccc(Nc2c(-c3ccnc(N)n3)[nH]c3c2C(=O)NCC3)c1Cl [compound 301] | > 1000 nM |
| COc1c(F)cccc1Nc1c(-c2ccncc2F)[nH]c2c1C(=O)NC[C@H]2C[C@H]1CCO1 [Compound 422d] | < 100 nM |
| COc1c(F)cccc1Nc1c(-c2ccncn2)[nH]c2c1C(=O)NC[C@@H]2C[C@@H]1COCCO1 [Compound 529] | 100 to 1000 nM |

###

Entries and their IC50
target: EGFR exon 20 ASV Ins V769_D770 (Ba/F3 cells) (Homo sapiens, UniProt P00533, INS769ASV)
Construct: expressed in transfected cells; host or cells: Ba/F3 (murine pro-B cells), retroviral transduction, puromycin selection, IL3-independent pool
assay explanation: Inhibitor activity on EGFR phosphorylation (pEGFR AlphaLISA, 2 h), Ba/F3 EGFR exon 20 ASV Ins
Type: cell-based
condition summary: EGFR phosphorylation, AlphaLISA, 2 hours; read-out: ASV IC50 (pEGFR)

| compound | IC50 |
| --- | --- |
| COc1c(Cl)cccc1Nc1c(-c2ccnc(NCC3CC(F)(F)C3)c2)[nH]c2c1C(=O)NCC2 | 0.1 to 1 µM |
| COc1c(Cl)cccc1Nc1c(-c2ccnc(N)n2)[nH]c2c1C(=O)N[C@H](C)C2 [187b] | < 0.1 µM |
| COc1c(Cl)cccc1Nc1c(-c2ccnc(N)n2)[nH]c2c1C(=O)NC[C@H]2C[C@@H]1COCCO1 | < 0.1 µM |
| N#Cc1c(F)cccc1Nc1c(-c2ccnc(N)n2)[nH]c2c1C(=O)NCC2 | 0.1 to 1 µM |
| COc1c(F)cccc1Nc1c(-c2ccncc2F)[nH]c2c1C(=O)NC[C@@H]2CC1COCCO1 (stereo in doubt) | < 0.1 µM |

###

target: EGFR exon 20 NPG Ins D770_N771 (Ba/F3 cells) (Homo sapiens, UniProt P00533, INS770NPG)
Construct: expressed in transfected cells; host or cells: Ba/F3 (murine pro-B cells), retroviral transduction, puromycin selection, IL3-independent pool
Sequence (P00533 with tags, fused parts or gaps INS770NPG): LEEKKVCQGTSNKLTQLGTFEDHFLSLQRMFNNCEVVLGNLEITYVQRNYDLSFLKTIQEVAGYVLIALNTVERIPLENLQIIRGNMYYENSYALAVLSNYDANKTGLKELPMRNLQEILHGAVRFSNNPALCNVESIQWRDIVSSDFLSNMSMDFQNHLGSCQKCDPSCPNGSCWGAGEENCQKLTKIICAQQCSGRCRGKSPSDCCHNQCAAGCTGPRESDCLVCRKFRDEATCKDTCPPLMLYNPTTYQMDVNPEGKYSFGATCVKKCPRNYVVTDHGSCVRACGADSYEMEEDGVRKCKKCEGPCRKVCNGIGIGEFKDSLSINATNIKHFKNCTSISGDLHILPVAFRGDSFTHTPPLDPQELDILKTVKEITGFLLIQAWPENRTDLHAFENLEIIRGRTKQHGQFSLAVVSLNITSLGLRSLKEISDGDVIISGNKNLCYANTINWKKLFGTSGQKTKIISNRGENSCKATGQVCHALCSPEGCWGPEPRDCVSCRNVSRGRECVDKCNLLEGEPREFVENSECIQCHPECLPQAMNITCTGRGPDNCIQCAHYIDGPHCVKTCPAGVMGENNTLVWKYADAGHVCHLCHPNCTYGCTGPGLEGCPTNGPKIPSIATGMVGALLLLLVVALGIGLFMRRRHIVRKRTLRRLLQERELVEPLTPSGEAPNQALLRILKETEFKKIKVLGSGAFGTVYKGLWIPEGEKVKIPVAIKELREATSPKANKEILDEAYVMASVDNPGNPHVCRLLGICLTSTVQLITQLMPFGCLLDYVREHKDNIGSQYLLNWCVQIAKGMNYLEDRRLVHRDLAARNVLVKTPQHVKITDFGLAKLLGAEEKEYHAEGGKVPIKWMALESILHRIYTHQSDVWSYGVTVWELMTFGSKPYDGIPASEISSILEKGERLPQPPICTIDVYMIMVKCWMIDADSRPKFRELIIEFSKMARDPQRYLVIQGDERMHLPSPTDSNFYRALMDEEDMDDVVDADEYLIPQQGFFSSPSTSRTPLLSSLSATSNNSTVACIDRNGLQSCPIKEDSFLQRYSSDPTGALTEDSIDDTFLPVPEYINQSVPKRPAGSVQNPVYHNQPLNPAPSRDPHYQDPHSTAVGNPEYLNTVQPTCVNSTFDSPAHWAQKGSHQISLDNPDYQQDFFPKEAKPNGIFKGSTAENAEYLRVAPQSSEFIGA
assay explanation: Inhibitor activity on EGFR phosphorylation (pEGFR AlphaLISA, 2 h), Ba/F3 EGFR exon 20 NPG Ins
Type: cell-based
Consider the following molecules and their measured IC50 readings.
property measured: IC50

| molecule | property measured | value |
| --- | --- | --- |
| C=CC(=O)N1CCC(Oc2nc3c(-c4[nH]c5c(c4Nc4cccc(Cl)c4OC)C(=O)NCC5)ccnc3cc2OC)CC1 [Compound 731] | IC50 | < 0.1 µM |
| COc1c(F)cccc1Nc1c(-c2ncnc3sccc23)[nH]c2c1C(=O)NCC2 [compound 138] | IC50 | > 1 µM |
| COCCOc1ccc2nccc(-c3[nH]c4c(c3Nc3cccc(Cl)c3OC)C(=O)NCC4)c2n1 [compound 678] | IC50 | < 0.1 µM |
| COc1c(Cl)cccc1Nc1c(-c2ccnc(NC(=O)C3CC3)n2)[nH]c2c1C(=O)NCC2 [compound 221] | IC50 | < 0.1 µM |
| COc1nccc(-c2[nH]c3c(c2Nc2cccc(Cl)c2OC)C(=O)NCC3)n1 [compound 286] | IC50 | 0.1 to 1 µM |
| COc1c(Cl)cccc1Nc1c(-c2ccnc(Nc3ccn(CC(F)F)n3)n2)[nH]c2c1C(=O)NCC2 [compound 515] | IC50 | < 0.1 µM |
| COc1c(F)cccc1Nc1c(-c2ncnc3c2ccn3C)[nH]c2c1C(=O)NCC2 [Compound 150] | IC50 | > 1 µM |
| COc1c(Cl)cccc1Nc1c(-c2ccncc2F)[nH]c2c1C(=O)NC[C@@H]2C[C@H]1COCCO1 [Compound 481] | IC50 | < 0.1 µM |
| COc1ccc2nccc(-c3[nH]c4c(c3Nc3cccc(Cl)c3OC)C(=O)NCC4)c2n1 [Compound 149] | IC50 | < 0.1 µM |
| Cc1c(F)cccc1Nc1c(-c2ccnc(N)c2F)[nH]c2c1C(=O)NCC2 [Compound 692] | IC50 | < 0.1 µM |
| COc1c(F)cccc1Nc1c(-c2ccncc2F)[nH]c2c1C(=O)NC[C@H]2C[C@@H]1CCO1 [Compound 422a] | IC50 | < 0.1 µM |
| COc1c(F)cccc1Nc1c(-c2ccnc(N)n2)[nH]c2c1C(=O)NCC2 [compound 281] | IC50 | < 0.1 µM |
| COc1c(Cl)cccc1Nc1c(-c2ccnc(C)n2)[nH]c2c1C(=O)NCC2 [compound 206] | IC50 | < 0.1 µM |
| COc1cc2nccc(-c3[nH]c4c(c3Nc3cccc(F)c3C)C(=O)NCC4)c2nc1OC [Compound 808] | IC50 | < 0.1 µM |
| Nc1nccc(-c2[nH]c3c(c2Nc2ccccc2)C(=O)NCC3)n1 [compound 283] | IC50 | < 0.1 µM |
| COCC[C@@H]1CNC(=O)c2c1[nH]c(-c1ccnc(N)n1)c2Nc1cccc(Cl)c1OC [Compound 726] | IC50 | < 0.1 µM |
| COc1c(F)cccc1Nc1c(-c2snc3ccccc23)[nH]c2c1C(=O)NCC2 [Compound 157] | IC50 | > 1 µM |
| COc1c(Cl)cccc1Nc1c(-c2ccnc(N)n2)[nH]c2c1C(=O)NC[C@@H]2C[C@@H]1COCCO1 [Compound 532] | IC50 | < 0.1 µM |

src = patent US20240101576A1
